EXPERIMENTAL TARGET: human serum albumin (HSA) (Homo sapiens)
Construct: purchased Sigma-Aldrich
Sequence (P02768 25-609): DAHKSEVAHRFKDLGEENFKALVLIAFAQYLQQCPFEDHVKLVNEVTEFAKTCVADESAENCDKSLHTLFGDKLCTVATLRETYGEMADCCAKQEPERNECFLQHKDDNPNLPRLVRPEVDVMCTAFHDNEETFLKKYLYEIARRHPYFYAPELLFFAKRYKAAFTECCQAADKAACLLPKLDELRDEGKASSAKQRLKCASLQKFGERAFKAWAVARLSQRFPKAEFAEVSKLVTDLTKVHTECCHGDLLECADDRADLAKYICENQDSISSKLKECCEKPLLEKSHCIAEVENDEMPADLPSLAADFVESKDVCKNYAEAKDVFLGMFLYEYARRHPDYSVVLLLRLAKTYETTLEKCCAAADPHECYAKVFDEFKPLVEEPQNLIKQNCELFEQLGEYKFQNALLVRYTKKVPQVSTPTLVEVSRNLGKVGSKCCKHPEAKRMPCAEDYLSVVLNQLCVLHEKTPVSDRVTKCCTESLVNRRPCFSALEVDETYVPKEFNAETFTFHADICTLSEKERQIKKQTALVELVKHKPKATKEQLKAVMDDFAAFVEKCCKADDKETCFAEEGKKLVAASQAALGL
TEST SUMMARY: HSA-ligand interaction by fluorescence spectroscopy (quenching, Stern-Volmer and Hyperquad fitting)
Assay type: binding
EXPERIMENTAL SETUP: decimal log ±SEM of K in L/mol; Hyperquad non-linear fitting; PBS pH 7.4; read-out: LogK (binding constant of albumin-ligand complex) (converted)
READOUT NAME: Kd

MOLECULE: O=C(O)/C=C/c1cccc(O)c1 [3CA, 3-coumaric acid]
READOUT NAME: Kd
OBS VALUE: 72.4 µM
--
MOLECULE: COc1ccc(C(=O)O)c(O)c1 [2H4MBA, 2-hydroxy-4-methoxybenzoic acid]
READOUT NAME: Kd
OBS VALUE: 7.24 µM
--
MOLECULE: CC(C(=O)c1ccc(O)cc1O)c1ccc(O)cc1 (stereo not shown) [DESMA]
READOUT NAME: Kd
OBS VALUE: 8.32 µM
--
MOLECULE: CC(=O)c1ccc(O)cc1O [24DHAP, 2,4-dihydroxyacetophenone]
READOUT NAME: Kd
OBS VALUE: 27.5 µM
